List of normalized growth values.
test: chemical genetic growth profiling, strain panel (AID 1159580);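 further: tested at 20 µM; growth read once vehicle control cultures reached saturation at 30 °C; 1 = growth at the plate median or of vehicle wells; lower values mean less growth of the strain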; details: S. cerevisiae deletion strains, growth OD, locus YDR335W, strain msn5, stronger effect = lower value
Screen size: about 5,500 compounds; about 2,000 (36%) were called active. Another 18% or so got no clear call; they are omitted. This is one part of the list.
// response body must contain only the number

Known results for compounds:
1) O=c1c(-c2ccc(O)cc2)coc2cc(O)ccc12	0.992
2) C=C[C@@](C)(O)CCC1C(=C)C[C@H](OC(C)=O)C2C(C)(C)CCCC12C (some centres not stated)	1.03
3) C=CC[C@]1(O)CCC2C3CCC4=CC(=O)CCC4=C3C=C[C@@]21C (some centres not stated)	1.01
4) NCCCS(=O)(=O)O	1.02
5) COc1ccc(C(=O)CC(=O)O)c2c1C=CC(C)(C)O2	1.01

Turning now to a further record.
C[C@@H]1CC(Cl)CC[C@H]1C(=O)OC(C)(C)C (some centres not stated) yielded normalized growth of 0.981

---

test: chemical genetic growth profiling, strain panel (AID 1159580); details: S. cerevisiae deletion strains, growth OD, locus YIL073C, strain SPO22, stronger effect = lower value
About 2,000 (36%) of roughly 5,500 compounds were called active. Inconclusive results (about 18%) are left out. Some of the results follow.
experimental.endpoint: normalized growth
Just the number, please, no unit after it.

Use these answered entries as a reference point.
1) CN(C)CCN(Cc1ccccc1)c1ccccn1	0.928
2) CC[C@@H](C(=O)C(C)[C@@H](O)[C@H](C)CCc1ccc(C)c(O)c1C(=O)O)C1OC(CC)(C2CC[C@](O)(CC)[C@H](C)O2)C[C@@H]1C (stereo not given in full)	0.988
3) COc1ccc(C(c2ccc(OC)cc2)C(Cl)(Cl)Cl)cc1	0.952
4) COc1ccc(CN(CCN(C)C)c2ccccn2)cc1	0.916

Below: the item to evaluate.
normalized growth measured on CCCCCCCCCCC[C@@H](C[C@H]1OC(=O)[C@H]1CCCCCC)OC(=O)[C@@H](CC(C)C)NC=O = 1.06

---

assay: chemical genetic growth profiling, strain panel (AID 1159580); conditions: S. cerevisiae deletion strains, growth OD, locus YGL173C, strain kem1, stronger effect = lower value
Out of some 5,500 compounds screened, about 2,000 (36%) were called active. Inconclusive results (about 18%) are left out. This is one part of the list.
The reader will find reported normalized growth values listed item by item below.
Give the figure by itself; no unit, no explanation.

Example entries and their recorded answers appear below.
1. CC[C@@H]1C=C/C=C/C[C@H](C)[C@@H](O)[C@](C)(O)C(=O)[C@H](C)[C@@H](O)[C@H](C)C(=O)[C@H](C)[C@@H](O)[C@H](C)/C=C/C(=O)O[C@H]2[C@@H](C)[C@@H](CC1)O[C@@]1(CC[C@@H](C)[C@@H](C[C@H](C)O)O1)[C@@H]2C	0.996
2. O=C(O)/C=C/c1ccc(O)c(O)c1	1
3. CCN(CC)Cc1ccc(Nc2ccnc3cc(Cl)ccc23)cc1O	0.991
4. CCC[C@H](N[C@@H](C)C(=O)N1[C@H](C(=O)O)C[C@@H]2CCCC[C@@H]21)C(=O)OCC	1.01

Just so you know, measured normalized growth for c1ccc2c(c1)CCCC2C1=NCCN1 (stereo not given) came out at 1.02

---

assay: chemical genetic growth profiling, strain panel (AID 1159580); settings: S. cerevisiae deletion strains, growth OD, locus YLR039C, strain RIC1, stronger effect = lower value
The campaign covered roughly 5,500 compounds. About 2,000 (36%) were called active. Inconclusive results (about 18%) are left out. The list shows a part of the results.
experimental.endpoint: normalized growth
Just the number, please, no unit after it.

1) C/C(=C\C(=O)Nc1ccc(F)cc1)Nc1ccc(F)cc1	1.05
2) CCN(CC)Cc1ccc(Nc2ccnc3cc(Cl)ccc23)cc1O	1.01

Reported normalized growth for O=C(OCC(O)CO)c1ccccc1Nc1ccnc2cc(Cl)ccc12 (stereo not drawn) was 1.01

---

experiment: chemical genetic growth profiling, strain panel (AID 1159580);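 further: tested at 20 µM; growth read once vehicle control cultures reached saturation at 30 °C; 1 = growth at the plate median or of vehicle wells; lower values mean less growth of the strain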; conditions: S. cerevisiae deletion strains, growth OD, locus YNL071W, strain lat1
The whole screen tested about 5,500 compounds, of which about 2,000 (36%) were called active. About 18% were inconclusive and are not listed. Rule as the data show it: active = normalized growth mostly below about 0.91 (no sharp cut-off); inconclusive = no clear call, values can overlap the other calls; inactive = mostly above about 0.92. This is one part of the list.
Respond using exactly one of the listed classes: active, inactive

Use these answered entries as a reference point.
1. OCCc1ccccc1	inactive
2. O=C(O)/C=C/c1ccc(O)c(O)c1	inactive
3. O=c1c(-c2ccc(O)cc2)coc2cc(O)ccc12	inactive
4. COc1ccc(-c2coc3cc(O)ccc3c2=O)c(OC)c1	inactive

What did this assay record as the result for O=C(/C=C/c1ccc(O)c(O)c1)OCCc1ccccc1 ? active

What call does the record list for O=C(/C=C/c1ccc(O)c(O)c1)OC(Cc1ccc(O)c(O)c1)C(=O)O (configuration not stated) ? inactive

Which outcome was assigned to NCCS(=O)(=O)O in this test? inactive

# outcome recorded in this test, key = NCCCS(=O)(=O)O inactive

Assay outcome for C=CC[C@]1(O)CCC2C3CCC4=CC(=O)CCC4=C3C=C[C@@]21C (some centres not stated) : what was it? active

Which result was noted for this compound in the test: CC[C@@]1(O)C[C@H](O[C@H]2C[C@H](N(C)C)[C@H](O)[C@H](C)O2)c2c(cc3c(c2O)C(=O)c2c(O)ccc(O)c2C3=O)[C@H]1C(=O)OC inactive

Each compound tested received a call. Report the one for OCC(O)CN1CCN(c2ccccc2)CC1 (configuration not stated) . inactive

Record request — test call for N[C@@H](Cc1ccc(N(CCCl)CCCl)cc1)C(=O)O inactive

---

test: chemical genetic growth profiling, strain panel (AID 1159580);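 further: tested at 20 µM; growth read once vehicle control cultures reached saturation at 30 °C; 1 = growth at the plate median or of vehicle wells; lower values mean less growth of the strain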; conditions: S. cerevisiae deletion strains, growth OD, locus YER015W, strain faa2
Screen size: about 5,500 compounds; about 2,000 (36%) were called active. Inconclusive results (about 18%) are left out. Rule as the data show it: active = normalized growth mostly below about 0.91 (no sharp cut-off); inconclusive = no clear call, values can overlap the other calls; inactive = mostly above about 0.92. The list shows a part of the results.
Could you please pick one outcome from this set? active, inactive

1) Cc1ccc(C(=O)Nc2ccc(S(=O)(=O)O)c3cc(S(=O)(=O)O)cc(S(=O)(=O)O)c23)cc1NC(=O)c1cccc(NC(=O)Nc2cccc(C(=O)Nc3cc(C(=O)Nc4ccc(S(=O)(=O)O)c5cc(S(=O)(=O)O)cc(S(=O)(=O)O)c45)ccc3C)c2)c1	inactive
2) O=C(Oc1cc(OC(=O)c2ccccc2)c2c(c1)O[C@H](c1ccc(OC(=O)c3ccccc3)c(OC(=O)c3ccccc3)c1)[C@@H](OC(=O)c1ccccc1)C2)c1ccccc1	inactive
3) CC(=O)O[C@H]1C[C@@H](OC(C)=O)C(C)(C)C2CC(=O)[C@]3(C)C(CC[C@@]4(C)[C@H](C(=O)O)OC(=O)C5OC543)[C@]21C (stereo partly drawn)	inactive

Hey, what did the test say about CC(C)NCC(O)COc1cccc2[nH]ccc12 (stereo not drawn) ? inactive

Each compound tested received a call. Report the one for COc1cc([C@@H]2c3cc4c(cc3[C@@H](O)C3COC(=O)C32)OCO4)cc(OC)c1O (stereo partly drawn) . inactive

Given CNCCC(Oc1ccc(C(F)(F)F)cc1)c1ccccc1 (stereo not drawn) , state the outcome it received in this test. inactive

---

test: chemical genetic growth profiling, strain panel (AID 1159580);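 further: tested at 20 µM; growth read once vehicle control cultures reached saturation at 30 °C; 1 = growth at the plate median or of vehicle wells; lower values mean less growth of the strain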; conditions: S. cerevisiae deletion strains, growth OD, locus YDL101C, strain DUN1, stronger effect = lower value
Out of some 5,500 compounds screened, about 2,000 (36%) were called active. Not shown: some 18% with an inconclusive outcome. The list shows a part of the results.
experimental.endpoint: normalized growth

Example cases with answers are listed next.
1. c1ccc2c(c1)sc1ccccc12	0.96 (inactive)
2. O=[N+]([O-])c1cc(C(F)(F)F)c(N2CCCCC2)cc1N1CCCCC1	1.03 (inactive)
3. Cc1cc(=O)n2[nH]cnc2n1	1.06 (inactive)
4. Oc1cc(O)c2c(c1)OC(c1cc(O)c(O)c(O)c1)C(O)C2c1c(O)cc(O)c2c1OC(c1cc(O)c(O)c(O)c1)C(O)C2c1c(O)cc(O)c2c1OC(c1cc(O)c(O)c(O)c1)C(O)C2 (configuration not stated)	0.913 (inactive)
5. CN(C)CCN(Cc1cccs1)c1ccccn1	0.99 (inactive)
6. N#C/C(=N/Nc1ccccc1)C(=O)c1ccccc1OC(F)(F)F	0.93 (inactive)
7. CC(C)NCC(O)COc1cccc2[nH]ccc12 (configuration not stated)	0.988 (inactive)
8. CNC(=O)O/N=C(\C)SC	1.02 (inactive)
9. O=C1C(Cl)=C(Cl)C(=O)C(Cl)=C1Cl	0.941 (inactive)
10. Cc1ccccc1C(OCCN(C)C)c1ccccc1 (configuration not stated)	1 (inactive)

# compound CCC(C)C(=O)O[C@@H]1C[C@@]2(C)[C@H](c3ccoc3)OC(=O)CC23OC2(C)O[C@]14[C@]1(C)[C@@H](CC(=O)OC)C5(C)CC1(O)[C@](O)(C5OC(=O)C1(C)OC1C)[C@@H](OC(C)=O)[C@]34O2 (some centres not stated) ; its normalized growth = 1.02 (inactive)

Memo: CC[C@@H](C(=O)C(C)[C@@H](O)[C@H](C)CCc1ccc(C)c(O)c1C(=O)O)C1OC(CC)(C2CC[C@](O)(CC)[C@H](C)O2)C[C@@H]1C (some centres not stated) , reported normalized growth: 1.03 (inactive)

normalized growth measured on O=C1NCC2(CCN(CCc3ccccc3)CC2)O1 = 1.02 (inactive)

Noted for O=C(/C=C/c1ccc2c(c1)OCO2)Nc1ccc(Br)cc1 : its normalized growth reads 0.955 (inactive)

Looking up CCC(C)C(=O)OC1CC2(C)C(c3ccoc3)OC(=O)CC23OC2(C)OC34C(OC(=O)C(C)C)C3(O)C(OC(=O)C5(C)OC5C)C5(C)CC3(O)C(C)(C5C(=O)OC)C14O2 (configuration not stated) , I found its normalized growth recorded as 1.02 (inactive)

# normalized growth (compound: N#C/C(=N/Nc1ccc(F)cc1)S(=O)(=O)c1ccc(Cl)cc1 ) is 0.974 (inactive)

Per the records, this compound ( CC(C)(C)c1ccc(N/N=C(\C#N)C(N)=O)cc1 ) has normalized growth equal to 0.115 (active)

// normalized growth value for CC(=O)/C(C#N)=N\Nc1ccc(F)cc1 : 0.201 (active)

// normalized growth value for COc1ccc(-n2c(=S)[nH]c(=O)c3cccnc32)cc1 : 1.04 (inactive)

The measured normalized growth associated with C[C@]12CCC(=O)C=C1C=CC1C2CC[C@@]2(C)C1CC[C@@]2(O)CCC(=O)O (some centres not stated) reads 0.982 (inactive)

Field normalized growth (entry NS(=O)(=O)c1cc2c(cc1Cl)NC=NS2(=O)=O ) reads 1.01 (inactive)

normalized growth reading for COC(=O)C[C@H]1C2(C)CC34OC5(C)O[C@@]6([C@H](OC)C(OC(=O)C(C)C)[C@]7(C)C(/C(=C(/OC)C(C)C)C(=O)O[C@H]7c7ccoc7)[C@@]6(O5)[C@H](OC)[C@@]3(OC)C2OC(C)=O)[C@]14C (some centres not stated) : 1.02 (inactive)

// normalized growth lookup, compound = N#C/C(=N/Nc1ccc(F)cc1)C(=O)c1ccccc1 , result: 0.903 (active)

In plain terms, Cc1ccc(-c2csc(CC#N)n2)cc1C has a documented normalized growth of 0.963 (inactive)

Looking up O=C(Oc1cccc2[nH]ccc12)c1ccc(C(F)(F)F)cc1 , I see its normalized growth listed as 0.984 (inactive)

The compound identified as C/C(=C\C(=O)Nc1ccc(F)cc1)Nc1ccc(F)cc1 registered its normalized growth at 1.05 (inactive)

Looking up C[C@]12CCC(=O)C=C1C=CC1C2CC[C@@]2(C)C1CC[C@@]21CCC(=O)O1 (some centres not stated) , I found its normalized growth recorded as 0.877 (active)
